Source: ChEMBL document CHEMBL4689842

Test system: Fibroblast
Experiment: Multiplex assay against human fibroblast
Type: toxicity, cell-based
Settings: 48 h, 1 µM, compound concentration 1 uM, replicate 1
RECORDED_ENDPOINT: Population Membrane Permeable-Phenotype (%)
Quick reminder: number only, in %, skip the unit.

Bench note: what Population Membrane Permeable-Phenotype (%) did N#Cc1cccc(C(=O)Nc2cc(-c3ccccc3)nn2-c2ccccc2)c1 show?
26

Param item: CCCCCNC(=N)N/N=C/c1c[nH]c2ccc(OC)cc12.O=C(O)/C=C\C(=O)O [TEGASEROD MALEATE]
10

Ok, now C=CC(=O)Nc1cc(-n2c(=O)ccc3cnc4ccc(-c5ccc(NS(C)(=O)=O)cc5)cc4c32)ccc1C
25

From here, focus on the item given below.
For the compound shown here, C[C@@H](Oc1cc(-n2cnc3ccc(CN4CCN(C)CC4)cc32)sc1C(N)=O)c1ccccc1C(F)(F)F [GSK-461364] , give the reported Population Membrane Permeable-Phenotype (%).
20
